measured.target: JAK1 (Homo sapiens, UniProt P23458)
Construct: made in house; host or cells: SF9 insect cells (baculovirus)
Sequence (P23458 852-1154): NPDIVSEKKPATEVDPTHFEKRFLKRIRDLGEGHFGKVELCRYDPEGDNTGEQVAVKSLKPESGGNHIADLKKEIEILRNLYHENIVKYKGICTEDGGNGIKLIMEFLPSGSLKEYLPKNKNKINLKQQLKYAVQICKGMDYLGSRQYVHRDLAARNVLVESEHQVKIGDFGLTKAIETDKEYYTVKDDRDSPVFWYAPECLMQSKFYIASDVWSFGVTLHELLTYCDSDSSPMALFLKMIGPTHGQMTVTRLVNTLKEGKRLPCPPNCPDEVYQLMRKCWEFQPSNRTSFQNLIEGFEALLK
assay.info: JAK1 inhibition (Table 4)
Assay type: biochemical
condition.info: read-out: JAK1 Ki
measured.parameter: Ki (nM)

>>> measured_value("CCOC(=O)NCCc1nc2cnc3[nH]ccc3c2n1C1CCN(CC)CC1(F)F (single isomer, unassigned) [Example 679]")
7.45

1 = CC(C)(C)OC(=O)N1CC(F)(F)C[C@H]1C(=O)N1CCC(n2cnc3cnc4[nH]ccc4c32)CC1
2 = CS(=O)(=O)N1CCC[C@@H](n2cnc3cnc4[nH]ccc4c32)C1
3 = CC(C)N1CCC(n2nnc3cnc4[nH]ccc4c32)CC1
Request: Please list these in order of increasing Ki. Thank you! Reply with the labels, ordered as the question asks.
Response: 2, 3, 1
(2: 7.48 nM, 3: 223 nM, 1: 357 nM)

1 = N#CCCn1ncc2c1CC[C@@H](n1cnc3cnc4[nH]ccc4c31)C2
2 = C[C@@H](O)c1nc2cnc3[nH]ccc3c2n1C1CCOCC1
3 = C[C@@H](O)c1nc2cnc3[nH]ccc3c2n1[C@@H]1CCCN(C(=O)Cn2ccnc2)C1
4 = CC(C)N[C@H]1CC[C@H](n2cnc3cnc4[nH]ccc4c32)CC1
5 = CCc1nc2cnc3[nH]ccc3c2n1C1CCN(C(C)CC#N)CC1 (stereo not shown)
Request: Parameters: sort_field (Ki), sort_dir (desc). Reply with the labels, ordered as the question asks.
Response: 3, 2, 1, 4, 5
(3: 69 nM, 2: 26.4 nM, 1: 17.8 nM, 4: 5.64 nM, 5: 3.55 nM)

a = CC(C)(C#N)c1nc2cnc3[nH]ccc3c2n1C1CCN(Cc2cnccn2)CC1
b = Cc1nc2cnc3[nH]ccc3c2n1C1CCCCC1C (mixture of isomers)
Request: Short answer wanted: higher Ki, a or b ? Mark your answer with the label of the selected entry.
Response: a

I = CC(C)CNC(=O)Cc1nc2cnc3[nH]ccc3c2n1C1CCCOC1 (racemic)
II = O=C(Cc1nc2cnc3[nH]ccc3c2n1C1CCCOC1)N1CCS(=O)(=O)CC1 (racemic)
Request: Short answer wanted: higher Ki, I or II ? Mark your answer with the label of the selected entry.
Response: I
